The values you see were collected from PubChem BioAssay AID256.

test system: CD2F1 mice, L1210 leukemia ip, survival T/C; experiment: NCI In Vivo Anticancer Drug Screen. Data for tumor model L1210 Leukemia (intraperitoneal) in CD2F1 (CDF1) mice; conditions: endpoint: mean survival time; dose: 100.0 mg/kg/injection; schedule: Q04DX003 (ip); vehicle: saline with Tween-80; higher = longer survival
Toxic doses and inconclusive results are not listed.

compoundStructureString: S=c1[nH]ncn1/N=C/c1ccccc1Cl
targetSystem: CD2F1 mice, L1210 leukemia ip, survival T/C
T/C: 95 % of control
--
compoundStructureString: CSc1ccc(C(c2ccc(SC)cc2)C(Cl)(Cl)Cl)cc1
targetSystem: CD2F1 mice, L1210 leukemia ip, survival T/C
T/C: 89 % of control
--
compoundStructureString: CCOC(=O)c1c(OC)cc2n(c1=O)Cc1cc3ccccc3nc1-2
targetSystem: CD2F1 mice, L1210 leukemia ip, survival T/C
T/C: 90 % of control
--
compoundStructureString: O=C1Nc2ccc([N+](=O)[O-])c3c(C(=O)O)ccc1c23
targetSystem: CD2F1 mice, L1210 leukemia ip, survival T/C
T/C: 98 % of control
--
compoundStructureString: O=C(O)c1ccccc1C(=O)Nc1ccc([N+](=O)[O-])cc1
targetSystem: CD2F1 mice, L1210 leukemia ip, survival T/C
T/C: 98 % of control
